Sourced from paper PMC6996298

inhibition at 500000 µM values, listed per item
Biological target: VvSWEET7 (Vitis vinifera, UniProt A0ACM8QLM4)
Construct: gene VIT_02s0025g02080; full-length cDNA in pYES-DEST52 (GAL1 promoter), expressed in hxt-null S. cerevisiae EBY.VW4000
Sequence (A0ACM8QLM4 1-260): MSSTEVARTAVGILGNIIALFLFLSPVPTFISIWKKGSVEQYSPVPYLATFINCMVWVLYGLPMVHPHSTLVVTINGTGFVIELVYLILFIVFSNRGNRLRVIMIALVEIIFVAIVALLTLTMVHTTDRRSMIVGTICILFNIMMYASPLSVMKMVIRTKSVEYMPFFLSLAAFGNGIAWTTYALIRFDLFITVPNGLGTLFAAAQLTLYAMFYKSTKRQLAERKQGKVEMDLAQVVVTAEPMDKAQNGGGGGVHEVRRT
Assay: inhibition of D-[…]-glucose uptake in yeast EBY.VW4000
Assay type: cell-based
Details: read-out: % inhibition at 500 mM
property_label: inhibition at 500000 µM

                                   compound                             tested_target  test_result
0  OC[C@@H](O)[C@@H](O)[C@H](O)[C@@H](O)CO [sorbitol]  VvSWEET7 (Vitis vinifera, UniProt A0ACM8QLM4)          38%
1  OCC1(O)OC[C@@H](O)[C@@H](O)[C@@H]1O (stereo partly shown) [fructose]  VvSWEET7 (Vitis vinifera, UniProt A0ACM8QLM4)          79%
2  OC[C@H]1OC(O)[C@H](O)[C@@H](O)[C@H]1O (stereo partly shown) [galactose]  VvSWEET7 (Vitis vinifera, UniProt A0ACM8QLM4)          56%
3  OC[C@@H](O)[C@@H](O)[C@H](O)[C@H](O)CO [mannitol]  VvSWEET7 (Vitis vinifera, UniProt A0ACM8QLM4)          29%
